# credit: ChEMBL document CHEMBL1157539

Measured Inhibition values are reported for all entries that follow.
Tested on: Plasmodium falciparum
Assay: GSK_TCMDC: Inhibition of Plasmodium falciparum 3D7 in whole red blood cells, using parasite LDH activity as an index of growth. Test compounds present at 2uM
Format: functional
Provide the reading as a plain figure in %.

>  <Molecule>
CCOC(=O)C(=O)N1c2ccc(OCC)cc2-c2c(ssc2=S)C1(C)C

>  <Tested System>
Plasmodium falciparum

>  <Observed Result>
99

$$$$
>  <Molecule>
CCCCCc1ccc(N2C(N)=NC(N)=NC2(C)C)cc1.Cl

>  <Tested System>
Plasmodium falciparum

>  <Observed Result>
95

$$$$
>  <Molecule>
N#Cc1ccc(N2CCN(Cc3ccc(-c4ccc(-c5nc6cc(F)ccc6[nH]5)s4)cc3)CC2)nc1.O=C(O)C(F)(F)F

>  <Tested System>
Plasmodium falciparum

>  <Observed Result>
100

$$$$
>  <Molecule>
CN1CCC(Oc2ccc(CN3CC[C@H](NC(=O)c4ccc(Cl)c(Cl)c4)C3)cc2Cl)C1.O=C(O)C(F)(F)F (stereo not given in full)

>  <Tested System>
Plasmodium falciparum

>  <Observed Result>
100

$$$$

Entry CC(Cc1ccc(C(=O)OC(c2ccccc2)c2ccccc2)cc1)NCC(O)c1ccccc1.Cl (stereo not given) : reported Inhibition = ?
100

###

System: Plasmodium falciparum
Assay: GSK_TCMDC: Inhibition of Plasmodium falciparum 3D7 in whole red blood cells, using parasite LDH activity as an index of growth. Test compounds present at 2uM
Format: functional
Measure Name: Inhibition (%)
Provide the reading as a plain figure in %.

Observe how each entry below is paired with its result.
>  <Compound>
COc1ccc(C2C(C(=O)OC3CCCCC3)=C(C)NC3=C2C(=O)CCC3)cc1Br (centres undefined)

>  <Inhibition, %>
95

$$$$
>  <Compound>
Cc1cnc(Nc2cccnc2)nc1Nc1ccccc1C(=O)NC(C)C

>  <Inhibition, %>
85

$$$$
>  <Compound>
COc1cccc(C2CCN(CCN3CCC(CNC(=O)c4ccc(-c5ccc(C(F)(F)F)cc5)cc4)CC3)CC2)c1

>  <Inhibition, %>
100

$$$$
>  <Compound>
Fc1cccc(CNc2ncc(-c3ccsc3)c(-c3nccs3)n2)c1

>  <Inhibition, %>
91

$$$$
>  <Compound>
CCN(CC)Cc1ccc2c(=O)cc(CCc3cccc(F)c3F)n(CC(=O)N(Cc3ccc(-c4ccc(C(F)(F)F)cc4)cc3)C(C)C)c2c1.O=C(O)C(O)C(O)C(=O)O

>  <Inhibition, %>
100

$$$$
>  <Compound>
O=C(Nc1ccc(N2CCN(C(=O)/C=C/c3ccccc3)CC2)c(Cl)c1)c1ccc([N+](=O)[O-])o1

>  <Inhibition, %>
97

$$$$
>  <Compound>
O=C(O)C(F)(F)F.O=S(=O)(NCCN1CCCC1)c1ccc(-c2ccc(CNCc3ccsc3)cc2)cc1F

>  <Inhibition, %>
96

$$$$
>  <Compound>
O=c1cc(NCCCNCc2cc(C(F)(F)F)ccc2F)[nH]c2ccccc12

>  <Inhibition, %>
94

$$$$

Consider the record given below.
API: value(readout=Inhibition, system=Plasmodium falciparum) for record `O=C(NCCNc1nc(NCCNC(=O)Nc2ccccc2)c2ccc(=O)n(-c3c(F)cccc3F)c2n1)Nc1ccccc1`
94

###

Measured Inhibition values are reported for all entries that follow.
Test system: HepG2
Assay: GSK_TCMDC: Percent inhibition of human HepG2 cell line. Test compounds present at 10uM.
Assay type: functional
Provide the reading as a plain figure in %.

Observe how each entry below is paired with its result.
>  <Compound>
COc1ccc2nccc(NC(=O)C3(O)CCC(NCc4ncc5c(c4Cl)OCCO5)CC3)c2n1.Cl (centres undefined)

>  <Inhibition (%)>
21

$$$$
>  <Compound>
O=C(Nc1ccccc1)N(Cc1ccccc1-c1cccc(CNCc2ccc3c(c2)OCO3)c1)C1CCN(Cc2ccccc2)CC1.O=C(O)C(F)(F)F

>  <Inhibition (%)>
35

$$$$
>  <Compound>
COc1cccc2cc(C(=O)N[C@@H](CC(C)C)C(=O)N[C@H](C=NNC(=O)OC(C)(C)C)Cc3ccccc3)oc12

>  <Inhibition (%)>
11

$$$$
>  <Compound>
O=[N+]([O-])c1cccc(-n2nc(NCc3ccc(Cl)cc3)nc2-c2ccc(F)c(C(F)(F)F)c2)c1

>  <Inhibition (%)>
6

$$$$
>  <Compound>
CS(=O)(=O)CCNCc1cccc(-c2ccc3c(Nc4ccc(Oc5cccnc5)cc4)ccnc3c2)c1

>  <Inhibition (%)>
27

$$$$
>  <Compound>
C[C@@H](NC(=O)c1nn(-c2ccc(Cl)cc2)c(=O)c2ccccc12)C(C)(C)C

>  <Inhibition (%)>
7

$$$$
>  <Compound>
O=C(/C=C/c1ccc(Cl)c(Cl)c1)NC1CCC(CN2CCC(c3nc4cc(O)ccc4[nH]3)CC2)CC1 (centres undefined)

>  <Inhibition (%)>
41

$$$$
>  <Compound>
c1ccc2cc3c(Nc4ccc(N5CCCCCC5)cc4)ccnc3cc2c1

>  <Inhibition (%)>
10

$$$$
>  <Compound>
Cc1nn(C2CCS(=O)(=O)C2)c(C)c1C1Nc2ccccc2C(=O)N1Cc1ccc2c(c1)OCO2 (centres undefined)

>  <Inhibition (%)>
7

$$$$
>  <Compound>
CCCN1CCN(CCCNc2c3ccccc3nc3ccccc23)CC1.Cl

>  <Inhibition (%)>
36

$$$$

Entry `Cc1ccc(S(=O)(=O)NC(=N)NC(N)=O)cc1` : reported Inhibition = ?
26

Entry COc1ccc(CC(=O)NC2CCN(c3ccnc4cc(Cl)ccc34)C2)cc1.O=C(O)C(F)(F)F (centres undefined) : reported Inhibition = ?
0

###

Tested on: HepG2
Assay: GSK_TCMDC: Percent inhibition of human HepG2 cell line. Test compounds present at 10uM.
Assay type: functional
The threshold is inclusive: Inhibition of exactly 40% counts as 1.0; values below receive 0.0.

>  <Compound>
O=C(c1cccc(Cl)c1)N1CCN(c2ccc([N+](=O)[O-])c(NC3CC3)c2)CC1

>  <Tested System>
HepG2

>  <Assigned Label>
0.0

$$$$
>  <Compound>
Cc1cc(OCCCN2CCCC2)ccc1NC(=O)COc1ccc(Cl)cc1C(=O)c1cc(C#N)cc(C(F)(F)F)c1

>  <Tested System>
HepG2

>  <Assigned Label>
0.0

$$$$
>  <Compound>
COc1ccc(N2CCN(CCCN3CCN(C(=O)c4ccc(/C=C/c5ccc(Cl)c(Cl)c5)cc4)CC3)CC2)c(OC)c1.O=C(O)/C=C/C(=O)O

>  <Tested System>
HepG2

>  <Assigned Label>
1.0

$$$$
>  <Compound>
COc1cccc(C(=O)NC(NC(=S)Nc2ccc(OC)cc2[N+](=O)[O-])C(Cl)(Cl)Cl)c1 (stereo not drawn)

>  <Tested System>
HepG2

>  <Assigned Label>
0.0

$$$$
>  <Compound>
COc1ccc(Br)cc1/C=C/C(=O)Nc1ccc(C2CCCN(C)C2)cc1.O=CO (stereo not drawn)

>  <Tested System>
HepG2

>  <Assigned Label>
0.0

$$$$
>  <Compound>
FC(F)(F)c1ccc2[nH]c(-c3ccc(-c4cccc(CN5CCC(CCN6CCCCC6)CC5)c4)cc3)nc2c1.O=C(O)C(F)(F)F

>  <Tested System>
HepG2

>  <Assigned Label>
1.0

$$$$
>  <Compound>
CCc1c(C(=O)NC2CCC(N3CCC(c4ccccc4C)CC3)CC2)[nH]c2ccc(Br)cc12 (stereo not drawn)

>  <Tested System>
HepG2

>  <Assigned Label>
1.0

$$$$

Would you kindly look at the next entry?
Reported Inhibition at or above 40%? `OCCOCn1cnc2cnc(N[C@H]3OC[C@H](O)[C@@H](O)[C@@H]3O)nc21`
1.0

###

Tested on: Plasmodium falciparum
Test: GSK_TCMDC: Inhibition of Plasmodium falciparum 3D7 in whole red blood cells, using parasite LDH activity as an index of growth. Test compounds present at 2uM
Type: functional
Measure Name: Inhibition (%)
Provide the reading as a plain figure in %.

Observe how each entry below is paired with its result.
>  <Compound>
CCNc1cc(C(=O)N[C@@H](Cc2ccccc2)[C@H](O)CNCc2cc(OC)cc(OC)c2)cc(N2CCCS2(=O)=O)c1.Cl

>  <Inhibition, %>
99

$$$$
>  <Compound>
O=C(COc1ccc(C(=O)c2ccccc2)cc1)Nc1nccs1

>  <Inhibition, %>
94

$$$$
>  <Compound>
Cc1cc(C(=O)NC2CCN(Cc3ccccc3)CC2)ccc1-c1nc2cc(Cl)c(Cl)cc2[nH]1

>  <Inhibition, %>
96

$$$$
>  <Compound>
CC(=O)Nc1ccc(CN(Cc2ccc(F)cc2)Cc2cccc(Oc3ccccc3)c2)cc1

>  <Inhibition, %>
88

$$$$
>  <Compound>
Cc1c(C)c2c(c(C)c1O)CCC(C)(CCC(=O)O)O2 (centres undefined)

>  <Inhibition, %>
96

$$$$
>  <Compound>
FC(F)(F)Oc1cccc(CNc2noc(-c3sccc3Br)n2)c1

>  <Inhibition, %>
100

$$$$
>  <Compound>
Cl.c1ccc2c(C3CCN(CCCCOc4ccc5c(c4)CCN(C4CCC4)CC5)CC3)c[nH]c2c1

>  <Inhibition, %>
100

$$$$
>  <Compound>
COc1ccc(Cl)c(CC2c3cc(O)c(Cl)cc3CCN2C)c1.Cl (centres undefined)

>  <Inhibition, %>
98

$$$$

Entry `COc1ccc2nccc([C@@H](O)CN3CCC(NCc4cn5cc(F)ccc5n4)CC3)c2c1.O=C(O)C(=O)O` : reported Inhibition = ?
96
